- SUBJECT OF TEST: T1, hRAGE-Fc (human, UniProt Q15109 23-342, biotin label in the selections and HTRF assays)
- T1 construct: extracellular domain; also called biotin labeled hRAGE-Fc; Biotin-labeled RAGE-Fc; not shown: Fc part
- PROCEDURE DETAILS: IC50 of parental M4 scFv over IC50 of clone, HTRF competition
ENDPOINT LABEL: Fold gain scFv (hRAGE)
Please answer using the number first and the unit second.

Study these solved cases before continuing.
| BINDER | Fold gain scFv (hRAGE) |
| --- | --- |
| S1R5A1_10G10 scFv (scFv) scFv: DIQMTQSPSSLSASVGDRVTITCRASQDVGIYVNWFQQKPGKAPRRLIYRATNLADGVPSRFSGSRSGTDFTLTISSLQPEDFATYYCLEFDEHPLTFGGGTRVEIKDGGGSGGGGSGGGGSSEVQLVESGGGLVQPGGSLRLSCAASGFTFNNYWMSWVRQAPGKGLEWVASIDNSGENTYYPDSVKDRFTISRDNAKNSLYLQMNSLRAEDTAVYYCARGGDITTGFDYWGQGTLVTVSS | 2 fold |
| 6C2 scFv (scFv) scFv: DIQMTQSPSSLSASVGDRVTITCRASQDVGIYVNWFQQKPGKAPRRLIYRATNLADGVPSRFSGSRSGTDFTLTISSLQPEDFATYYCLEFDEHPLTFGGGTKVEIKDGGGSGGGGSGGGGSSEVQLVESGGGLVQPGGSLRLSCAASGFTFNNYWMTWVRQAPGKGLEWVASIDNSGDNTYYPDSVKDRFTISRDNAKNSLYLQMNSLRAEDTAVYYCARGGDIKVSLDRWGQGTLVTVSS | 48.2 fold |

Next item in the queue.
Exercise: Please report the recorded Fold gain scFv (hRAGE) for 3D2 scFv (scFv) scFv: DIQMTQSPSSLSASVGDRVTITCRASQDVGIYVNWFQQKPGKAPRRLIYRATNLADGVPSRFSGSRSGTDFTLTISSLQPEDFATYYCLEFDEHPLTFGGGTKVEIKDGGGSGGGGSGGGGSSEVQLVESGGGLVQPGGSLRLSCAASGFTFNNYWMTWVRQAPGKGLEWVASIDNSGDNTYYPDSVKDRFTISRDNAKNSLYLQMNSLRAEDTAVYYCARGGDIRVSLDHWGQGTLVTVSS .
Solution: 26 fold
